Sourced from ChEMBL document CHEMBL4765454

Task for the reader: assign each of the following compounds its reported selectivity ratio.
assay: Selectivity ratio of EC50 for mouse NIH3T3 cells to EC50 for human A375 cells; format: toxicity; details: NIH3T3 cells versus A375 cells, read-out: Ratio EC50
One number for each entry.

Please report selectivity ratio for every entry that follows.
1. C=C(C)[C@@H]1CC[C@]2(C(=O)O)CC[C@]3(C)[C@H](CC[C@@H]4[C@@]5(C)CC[C@H](OC(C)=O)C(C)(C)[C@@H]5CC[C@]43C)[C@@H]12
2. C=C(C)[C@@H]1CC[C@]2(C(=O)O)CC[C@]3(C)[C@H](CC[C@@H]4[C@@]5(C)C[C@H](OC(C)=O)[C@H](OC(C)=O)C(C)(C)[C@@H]5CC[C@]43C)[C@@H]12
3. CC(=O)O[C@H]1C[C@]2(C)[C@H]3CC[C@@H]4[C@H]5[C@H](C(C)=O)CC[C@]5(C(=O)O)CC[C@@]4(C)[C@]3(C)CC[C@H]2C(C)(C)[C@H]1OC(C)=O
4. C=C(C)[C@@H]1CC[C@]2(C(=O)O)CC[C@]3(C)[C@H](CC[C@@H]4[C@@]5(C)C=C(O)C(=O)C(C)(C)[C@@H]5CC[C@]43C)[C@@H]12
5. C=C(C)[C@@H]1CC[C@]2(C(=O)O)CC[C@]3(C)[C@H](CC[C@@H]4[C@@]5(C)C[C@H](O)[C@H](O)C(C)(C)[C@@H]5CC[C@]43C)[C@@H]12

OUT:
1. 1.6
2. 0.9
3. 0.4
4. 0.9
5. 1.5

---

Task for the reader: assign each of the following compounds its reported selectivity ratio.
assay: Selectivity ratio of EC50 for mouse NIH3T3 cells to EC50 for human MCF7 cells; type: toxicity; details: NIH3T3 cells versus MCF7 cells, read-out: Ratio EC50
Numbers only.

Recorded selectivity ratio, per entry:
STRUCTURE NOTATION | ENDPOINT LABEL | RESULT VALUE
C=C(C)[C@@H]1CC[C@]2(C(=O)Nc3cncc4ccccc34)CC[C@]3(C)[C@H](CC[C@@H]4[C@@]5(C)CC[C@H](OC(C)=O)C(C)(C)[C@@H]5CC[C@]43C)[C@@H]12 | selectivity ratio | 29
C=C(C)[C@@H]1CC[C@]2(C(=O)NCc3ccccc3)CC[C@]3(C)[C@H](CC[C@@H]4[C@@]5(C)CC[C@H](OC(C)=O)C(C)(C)[C@@H]5CC[C@]43C)[C@@H]12 | selectivity ratio | 1.1
CC(=O)O[C@H]1C[C@]2(C)[C@H]3CC[C@@H]4[C@H]5[C@H](C(C)=O)CC[C@]5(C(=O)O)CC[C@@]4(C)[C@]3(C)CC[C@H]2C(C)(C)[C@H]1OC(C)=O | selectivity ratio | 0.3

Please report selectivity ratio for every entry that follows.
1. C=C(C)[C@@H]1CC[C@]2(C(=O)O)CC[C@]3(C)[C@H](CC[C@@H]4[C@@]5(C)C[C@H](O)[C@H](O)C(C)(C)[C@@H]5CC[C@]43C)[C@@H]12
2. CC(=O)O[C@H]1C[C@]2(C)[C@H]3CC[C@@H]4[C@H]5[C@H](C(C)=O)CC[C@]5(C(=O)Nc5cncc6ccccc56)CC[C@@]4(C)[C@]3(C)CC[C@H]2C(C)(C)[C@H]1OC(C)=O

OUT:
1: 1.1; 2: 4.3

---

system: MCF7; assay: Cytotoxicity against human MCF7 cells assessed as reduction in cell viability incubated for 72 hrs by SRB assay; format: functional, cell-based; details: Homo sapiens, MCF7, 72 h; read-out: EC50
Task for the reader: assign each of the following molecules its reported EC50.
One number for each entry, in µM.

STRUCTURE NOTATION | EC50, µM
C=C(C)[C@@H]1CC[C@]2(C(=O)O)CC[C@]3(C)[C@H](CC[C@@H]4[C@@]5(C)C[C@H](OC(C)=O)[C@H](OC(C)=O)C(C)(C)[C@@H]5CC[C@]43C)[C@@H]12 | 11.2

Next molecule, please.
IN: Given C=C(C)[C@@H]1CC[C@]2(C(=O)Nc3cncc4ccccc34)CC[C@]3(C)[C@H](CC[C@@H]4[C@@]5(C)CC[C@H](OC(C)=O)C(C)(C)[C@@H]5CC[C@]43C)[C@@H]12 , respond with its EC50.
OUT: 4.65
